Recorded relative viability values for a group of molecules are listed next.
System: NCI-H23
experiment.summary: relative viability (nuclei count vs DMSO), 5 days (fraction); higher = more cells survive
test.context: first compound 2 µM
Form rule: numeric answer, no unit written next to it.

Use the examples below as a reference point.
molecule | measured.number
Cc1csc(=NC2CCCCC2)n1/N=C/c1ccc(O)c(O)c1O [MIM1] + CC(C)C[C@H](NC(=O)[C@H](Cc1ccccc1)NC(=O)c1cnccn1)B(O)O [Bortezomib] (partner 0.002 µM) | 0.702
CN1CCN(CCOc2cc(OC3CCOCC3)c3c(Nc4c(Cl)ccc5c4OCO5)ncnc3c2)CC1 [Saracatinib] + C[C@@H](Oc1cc(-c2cnn(C3CCNCC3)c2)cnc1N)c1c(Cl)ccc(F)c1Cl [Crizotinib] (partner 1 µM) | 0.419
CN1CCN(CCOc2cc(OC3CCOCC3)c3c(Nc4c(Cl)ccc5c4OCO5)ncnc3c2)CC1 [Saracatinib] + Cc1nc(Nc2ncc(C(=O)Nc3c(C)cccc3Cl)s2)cc(N2CCN(CCO)CC2)n1 [Dasatinib] (partner 0.075 µM) | 0.789
CN1CCN(CCOc2cc(OC3CCOCC3)c3c(Nc4c(Cl)ccc5c4OCO5)ncnc3c2)CC1 [Saracatinib] + O=C(c1cc(Cc2n[nH]c(=O)c3ccccc23)ccc1F)N1CCN(C(=O)C2CC2)CC1 [Olaparib] (partner 8 µM) | 0.23
CN1CCN(CCOc2cc(OC3CCOCC3)c3c(Nc4c(Cl)ccc5c4OCO5)ncnc3c2)CC1 [Saracatinib] + N=C(N)NC(=N)NCCc1ccccc1 [Phenformin] (partner 250 µM) | 0.739

Problem: Provide only the value of recorded relative viability for CN1CCN(CCOc2cc(OC3CCOCC3)c3c(Nc4c(Cl)ccc5c4OCO5)ncnc3c2)CC1 [Saracatinib] + NC(=O)Nc1cc(-c2cccc(F)c2)sc1C(=O)N[C@H]1CCCNC1 [AZD7762] (partner 0.2 µM)
Result: 0.27

Problem: Tell me measured relative viability for CN1CCN(CCOc2cc(OC3CCOCC3)c3c(Nc4c(Cl)ccc5c4OCO5)ncnc3c2)CC1 [Saracatinib] + CS(=O)(=O)CCNCc1ccc(-c2ccc3ncnc(Nc4ccc(OCc5cccc(F)c5)c(Cl)c4)c3c2)o1 [Lapatinib] (partner 2 µM) please.
Result: 0.895

Problem: Quickly give me recorded relative viability for CN1CCN(CCOc2cc(OC3CCOCC3)c3c(Nc4c(Cl)ccc5c4OCO5)ncnc3c2)CC1 [Saracatinib] + CCNC(=O)c1noc(-c2cc(C(C)C)c(O)cc2O)c1-c1ccc(CN2CCOCC2)cc1 [Luminespib] (partner 0.01 µM)
Result: 0.219

Problem: Return value of relative viability for input CN1CCN(CCOc2cc(OC3CCOCC3)c3c(Nc4c(Cl)ccc5c4OCO5)ncnc3c2)CC1 [Saracatinib] + COc1cccc2cc(-c3nc([C@H]4CC[C@H](C(=O)O)CC4)n4ncnc(N)c34)[nH]c12 [OSI-027] (partner 0.5 µM) , no commentary.
Result: 0.503

Problem: Give me measured relative viability, please, for this molecule: Cc1csc(=NC2CCCCC2)n1/N=C/c1ccc(O)c(O)c1O [MIM1] + C[C@@H](Oc1cc(-c2cnn(C3CCNCC3)c2)cnc1N)c1c(Cl)ccc(F)c1Cl [Crizotinib] (partner 1 µM)
Result: 0.334

Problem: Using known records, supply relative viability for Cc1csc(=NC2CCCCC2)n1/N=C/c1ccc(O)c(O)c1O [MIM1] + Cc1nc(NC(=O)N2CCC[C@H]2C(N)=O)sc1-c1ccnc(C(C)(C)C(F)(F)F)c1 [Alpelisib] (partner 2 µM)
Result: 0.555

Problem: Give me measured relative viability, please, for this molecule: Cc1csc(=NC2CCCCC2)n1/N=C/c1ccc(O)c(O)c1O [MIM1] + C[C@]1(O)C[C@@H](c2nc(-c3ccc4ccc(-c5ccccc5)nc4c3)c3c(N)nccn32)C1 [Linsitinib] (partner 1 µM)
Result: 0.488

====

System: NCI-H1355
experiment.summary: relative viability (nuclei count vs DMSO), 5 days (fraction); higher = more cells survive
test.context: first compound 0.06325 µM
assay.readout: relative viability

compound | target.under.test | relative viability
CCNC(=O)c1noc(-c2cc(C(C)C)c(O)cc2O)c1-c1ccc(CN2CCOCC2)cc1 [Luminespib] + NC(=O)Nc1cc(-c2cccc(F)c2)sc1C(=O)N[C@H]1CCCNC1 [AZD7762] (partner 0.2 µM) | NCI-H1355 | 0.324
CCNC(=O)c1noc(-c2cc(C(C)C)c(O)cc2O)c1-c1ccc(CN2CCOCC2)cc1 [Luminespib] + CS(=O)(=O)CCNCc1ccc(-c2ccc3ncnc(Nc4ccc(OCc5cccc(F)c5)c(Cl)c4)c3c2)o1 [Lapatinib] (partner 2 µM) | NCI-H1355 | 0.664
CCNC(=O)c1noc(-c2cc(C(C)C)c(O)cc2O)c1-c1ccc(CN2CCOCC2)cc1 [Luminespib] + CC1(C)CCC(c2ccc(Cl)cc2)=C(CN2CCN(c3ccc(C(=O)NS(=O)(=O)c4ccc(N[C@H](CCN5CCOCC5)CSc5ccccc5)c(S(=O)(=O)C(F)(F)F)c4)cc3)CC2)C1 [Navitoclax] (partner 0.5 µM) | NCI-H1355 | 0.987

Problem: Under NCI-H1355, report relative viability for CCNC(=O)c1noc(-c2cc(C(C)C)c(O)cc2O)c1-c1ccc(CN2CCOCC2)cc1 [Luminespib] + Cc1nc(NC(=O)N2CCC[C@H]2C(N)=O)sc1-c1ccnc(C(C)(C)C(F)(F)F)c1 [Alpelisib] (partner 2 µM)
Result: 0.903

Problem: Provide NCI-H1355 relative viability reading for CCNC(=O)c1noc(-c2cc(C(C)C)c(O)cc2O)c1-c1ccc(CN2CCOCC2)cc1 [Luminespib] + Cc1cc(Nc2cc(N3CCN(C)CC3)nc(Sc3ccc(NC(=O)C4CC4)cc3)n2)n[nH]1 [Tozasertib] (partner 0.1 µM) .
Result: 0.618

====

Test system: HCC-827
experiment.summary: relative viability (nuclei count vs DMSO), 5 days (fraction); higher = more cells survive
test.context: first compound 6.325 µM
Decision: relative viability beneath 0.3 gives 1; relative viability meeting or exceeding 0.3 gives 0.

compound | target.under.test | group
Cc1csc(=NC2CCCCC2)n1/N=C/c1ccc(O)c(O)c1O [MIM1] + CC(=O)Nc1cccc(-n2c(=O)n(C3CC3)c(=O)c3c(Nc4ccc(I)cc4F)n(C)c(=O)c(C)c32)c1 [Trametinib] (partner 0.02 µM) | HCC-827 | 0
Cc1csc(=NC2CCCCC2)n1/N=C/c1ccc(O)c(O)c1O [MIM1] + Cc1nc(Nc2ncc(C(=O)Nc3c(C)cccc3Cl)s2)cc(N2CCN(CCO)CC2)n1 [Dasatinib] (partner 0.075 µM) | HCC-827 | 0
Cc1csc(=NC2CCCCC2)n1/N=C/c1ccc(O)c(O)c1O [MIM1] + NC(=O)Nc1cc(-c2cccc(F)c2)sc1C(=O)N[C@H]1CCCNC1 [AZD7762] (partner 0.2 µM) | HCC-827 | 1

Problem: In plain terms, does Cc1csc(=NC2CCCCC2)n1/N=C/c1ccc(O)c(O)c1O [MIM1] + CC(C)C[C@H](NC(=O)[C@H](Cc1ccccc1)NC(=O)c1cnccn1)B(O)O [Bortezomib] (partner 0.002 µM) come in under 0.3 for relative viability?
Result: 0

====

Test system: CAL-12T
experiment.summary: relative viability (nuclei count vs DMSO), 5 days (fraction); higher = more cells survive
test.context: first compound 0.253 µM
Recorded relative viability values for a group of compounds are listed next.
Keep it simple and answer with nothing but the number.

compound | target.under.test | measured.number
Nc1cccc2c1CN(C1CCC(=O)NC1=O)C2=O (centres undefined) [Lenalidomide] + Cc1nc(NC(=O)N2CCC[C@H]2C(N)=O)sc1-c1ccnc(C(C)(C)C(F)(F)F)c1 [Alpelisib] (partner 2 µM) | CAL-12T | 1.09
Nc1cccc2c1CN(C1CCC(=O)NC1=O)C2=O (centres undefined) [Lenalidomide] + CC1(C)CCC(c2ccc(Cl)cc2)=C(CN2CCN(c3ccc(C(=O)NS(=O)(=O)c4ccc(N[C@H](CCN5CCOCC5)CSc5ccccc5)c(S(=O)(=O)C(F)(F)F)c4)cc3)CC2)C1 [Navitoclax] (partner 0.5 µM) | CAL-12T | 1.4
Nc1cccc2c1CN(C1CCC(=O)NC1=O)C2=O (centres undefined) [Lenalidomide] + Cc1cc(Nc2cc(N3CCN(C)CC3)nc(Sc3ccc(NC(=O)C4CC4)cc3)n2)n[nH]1 [Tozasertib] (partner 0.1 µM) | CAL-12T | 0.3

From here, focus on the item given below.
Problem: For Nc1cccc2c1CN(C1CCC(=O)NC1=O)C2=O (centres undefined) [Lenalidomide] + Cc1nc(Nc2ncc(C(=O)Nc3c(C)cccc3Cl)s2)cc(N2CCN(CCO)CC2)n1 [Dasatinib] (partner 0.075 µM) , write its relative viability.
Result: 0.262

====

Tested on: A-427
experiment.summary: relative viability (nuclei count vs DMSO), 5 days (fraction); higher = more cells survive
test.context: first compound 0.02 µM
Recorded relative viability for the following compounds
Give the value as a plain number.

compound | target.under.test | relative viability
CN1CCN(CCOc2cc(OC3CCOCC3)c3c(Nc4c(Cl)ccc5c4OCO5)ncnc3c2)CC1 [Saracatinib] + Nc1ncn([C@H]2C[C@H](O)[C@@H](CO)O2)c(=O)n1 [Decitabine] (partner 2 µM) | A-427 | 0.533
CCNC(=O)c1noc(-c2cc(C(C)C)c(O)cc2O)c1-c1ccc(CN2CCOCC2)cc1 [Luminespib] + O=C(CCCCCCC(=O)Nc1ccccc1)NO [Vorinostat] (partner 1 µM) | A-427 | 0.807
CCNC(=O)c1noc(-c2cc(C(C)C)c(O)cc2O)c1-c1ccc(CN2CCOCC2)cc1 [Luminespib] + CC1(C)CCC(c2ccc(Cl)cc2)=C(CN2CCN(c3ccc(C(=O)NS(=O)(=O)c4ccc(N[C@H](CCN5CCOCC5)CSc5ccccc5)c(S(=O)(=O)C(F)(F)F)c4)cc3)CC2)C1 [Navitoclax] (partner 0.5 µM) | A-427 | 0.497

Switching to the query record.
Problem: Please tell me the measured relative viability for CN1CCN(CCOc2cc(OC3CCOCC3)c3c(Nc4c(Cl)ccc5c4OCO5)ncnc3c2)CC1 [Saracatinib] + CC(=O)Nc1cccc(-n2c(=O)n(C3CC3)c(=O)c3c(Nc4ccc(I)cc4F)n(C)c(=O)c(C)c32)c1 [Trametinib] (partner 0.02 µM) ; system: A-427.
Result: 0.764
